Reported logD values for a set of compounds
testProtocol: physchem
testSettings: octan-1-ol/water, pH 7.4, LogD7.4
testReadout: logD

# recordSmiles, quantitativeReadout
records = [
    ("CCCNC(=O)CSc1ccc(S(=O)(=O)N2CCCC2)cn1", 1.55),
    ("CS(=O)(=O)c1cccc(Nc2nccc(Nc3cccc4[nH]ncc34)n2)c1", 2.91),
    ("C[C@H]1O[C@@H](n2cnc3c(N)nc(OCC45CC6CC(CC(C6)C4)C5)nc32)[C@H](O)[C@@H]1O", 3.58),
    ("N#Cc1cc(Cl)ccc1O[C@H](CCN)c1ccccc1", 0.91),
    ("COc1cc2ncnc(Nc3cc(NC(=O)c4cccc(N5CCOCC5)c4)ccc3C)c2cc1OC", 3.6),
    ("CC(C)(C)NS(=O)(=O)c1cncc(-c2ccc3nc(NC(=O)NCC(=O)N4CCOCC4)nn3c2)c1", 0.96),
    ("NC(=O)Nc1sc(-c2ccccc2)cc1C(=O)N[C@H]1CCCNC1", 1.27),
    ("c1ccc2c(c1)CCN(c1ccncc1)C2", 1.4),
    ("O=C1NC(=O)C(c2ccccc2)(c2ccccc2)N1", 2.41),
    ("CCCOc1nc(N2CCC[C@@H](CC(=O)O)C2)ccc1C(=O)NC1CCCCC1", 2.81),
    ("Cc1nc(C)c(-c2ccc([C@H]3CC[C@H](CC(N)=O)CC3)cc2)nc1C(N)=O", 2.7),
    ("COc1ccc2ncc(C#N)c(CCN3CCC(NCc4cc5c(cn4)OCS5)CC3)c2c1", 2.55),
    ("O=C(O)COc1ccc(C(=O)c2cccs2)c(Cl)c1Cl", -0.84),
    ("CCC(CC)NC(=O)c1c(C)nn(-c2ccccc2)c1NS(=O)(=O)c1ccc(C)cc1", 1.35),
    ("C[C@@](O)(C(=O)Nc1ccc(S(=O)(=O)NCCN2CCOCC2)cc1Cl)C(F)(F)F", 2.14),
    ("COc1cc2c(Nc3ccc(Cl)cc3F)ncnc2cc1OCC1CCNCC1", 1.1),
    ("CN(C)CCOc1cc(NS(=O)(=O)c2c(Cl)cc(C(F)(F)F)cc2Cl)ccc1Cl", 2.99),
    ("O=C(O)c1ccc2cccc(O)c2n1", 3.3),
    ("CN(CCCc1ccccc1)S(=O)(=O)c1cc(C(=O)N2CCc3ccc(S(=O)(=O)NCCc4ccccc4)cc3C2)c(O)c(O)c1O", 0.75),
    ("COC1=CC(c2cc3ccccc3[nH]2)=N/C1=C\\c1[nH]c(C)cc1C", 2.55),
]

* * *

testProtocol: physchem
testSettings: pH 7.4 buffer
testReadout: solubility thermodynamic (µM)

# compound, endpointUnit, quantitativeReadout
data = [
    ("Cc1ccc(CCOCCNS(=O)(=O)CCCNCCc2ccc(O)c3nc(O)sc23)cc1", "µM", 372),
    ("CS(=O)(=O)n1c2ccccc2c2cc(NC(=O)CCc3ccncc3)ccc21", "µM", 22.9),
    ("Cc1ccc(S(=O)(=O)Nc2c(C(=O)N[C@@H](C)C(C)(C)C)c(C)nn2-c2ccccc2)cc1", "µM", 1020),
    ("C[C@@H]1CN(c2ncc(OCc3ccc(S(C)(=O)=O)cc3)cn2)[C@@H](C)CN1C(=O)OC(C)(C)C", "µM", 0.9),
    ("COc1cc2ncnc(Nc3ccc(NC(=O)c4ccccc4)cc3)c2cc1OC", "µM", 10),
    ("Cc1ccc(S(=O)(=O)Nc2c(C(=O)N[C@H](C)C(C)(C)C)c(C)nn2-c2ccccc2)cc1", "µM", 1000),
    ("COc1ccc(C(=O)Nc2nccs2)cc1OC", "µM", 132),
    ("CCN(C(=O)Cc1ccc(S(C)(=O)=O)cc1)C1CCN(CCC(c2ccccc2)C2CCN(C(C)=O)CC2)CC1 (centres undefined)", "µM", 1510),
    ("O=C(c1ccc(OCCN2CCCCC2)cc1)c1c(-c2ccc(O)cc2)sc2cc(O)ccc12", "µM", 9.1),
    ("COc1ccc(I)c(Sc2nc3c(N)ncnc3n2CCNCC(C)(C)C)c1", "µM", 4),
    ("CC(c1cc2ccccc2s1)N(O)C(N)=O (centres undefined)", "µM", 436),
    ("COCC(=O)N1CCC(n2cc(-c3cnc(N)c(-c4nc5ccccc5o4)c3)cn2)CC1", "µM", 1.9),
    ("Cc1ccc(Oc2ccc(Nc3ncnc4cccc(O[C@H](C)C(=O)N(C)C)c34)cc2C)cn1", "µM", 22.9),
    ("CCCNCc1cnc(-c2ccc(C(=O)Nc3ccccc3N)cc2)s1", "µM", 676),
    ("C[C@@H]1CN(c2nc(N3CCOCC3)c3ccc(Nc4ccccc4)nc3n2)C[C@H](C)O1", "µM", 1.4),
    ("COc1cc2c(Nc3cc(CC(=O)Nc4cccc(F)c4F)[nH]n3)ncnc2cc1OCCCN(CCO)CC(C)C", "µM", 132),
    ("CC(=O)N1CCN(CCOc2ccc(C3(O)CCN(c4ccc5nnc(C(F)(F)F)n5n4)CC3)cc2)CC1", "µM", 170),
    ("NCC(O)(c1ccc(Cl)cc1)c1ccc(Cl)cc1", "µM", 759),
    ("CC[C@@H](Nc1c(Nc2cccc(C(=O)N(C)C)c2O)c(=O)c1=O)c1ccccc1", "µM", 646),
]
